# target.system: Proteasome subunit beta (Trypanosoma cruzi) (UniProt O96673)
# Sequence (whole entry): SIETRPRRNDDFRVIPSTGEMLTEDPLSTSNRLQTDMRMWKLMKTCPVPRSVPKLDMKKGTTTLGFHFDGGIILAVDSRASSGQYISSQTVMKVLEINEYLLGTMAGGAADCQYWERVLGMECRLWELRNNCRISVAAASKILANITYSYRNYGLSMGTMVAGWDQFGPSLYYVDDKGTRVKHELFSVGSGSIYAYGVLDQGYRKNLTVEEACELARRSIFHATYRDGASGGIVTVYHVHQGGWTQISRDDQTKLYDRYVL
# assay.protocol: Trypanosoma cruzi proteasome chymotrypsin-like activity (TcProtChymo) assay. Note: in the data most compounds retested in dose-response had high values.
# Assay type: functional
# Set-up: scale not given: direction of the effect not stated beside the values
# condition.details: 9.37 µM
Please respond with t when measured Percent Effect is strictly beneath 10%, and with f in all other cases.

Cn1cc(S(=O)(=O)N2CCCC2CC(=O)c2cccs2)cn1 (centres undefined) :: f

[in] is_below(Percent Effect, 10%) for O=C1CC(c2cccnc2)C2(CCN(S(=O)(=O)C3CC3)CC2)N1 (centres undefined) ?
[out] f

[in] is_below(Percent Effect, 10%) for O=C(Cc1cccs1)NC1CCN(c2cccc(F)c2)CC1 ?
[out] t

[in] is_below(Percent Effect, 10%) for O=S(=O)(c1cccnc1)N1CCN(CCn2ccnc2)CC1 ?
[out] f

[in] is_below(Percent Effect, 10%) for Cc1cc(C)n(CC2CCCCN2Cc2cscn2)n1 (centres undefined) ?
[out] t

[in] is_below(Percent Effect, 10%) for O=S(=O)(NC1=NCN(CCc2cccs2)CN1)c1ccc(F)cc1 ?
[out] f

[in] is_below(Percent Effect, 10%) for CSCCCNC(=O)Nc1cccc(-c2nccn2C)c1 ?
[out] f

[in] is_below(Percent Effect, 10%) for Cc1nc(C2CCCN(C(=O)c3ccc(N4CCCC4)nc3)C2)no1 (centres undefined) ?
[out] t

[in] is_below(Percent Effect, 10%) for c1ccc(Oc2cc(CNCC3CNc4ccnn4C3)ccn2)cc1 (centres undefined) ?
[out] f

[in] is_below(Percent Effect, 10%) for CNc1nc(CNC(=O)Nc2cccc(F)c2)cs1 ?
[out] t

[in] is_below(Percent Effect, 10%) for COCC(=O)N1CC[C@@H]2O[C@H](COCc3ccncc3)CC[C@@H]21 ?
[out] f

[in] is_below(Percent Effect, 10%) for c1ncn(CC2CCCCN2Cc2csc(C3CCCC3)n2)n1 (centres undefined) ?
[out] t

---

# target.system: Arginase-2, mitochondrial (Homo sapiens)
# assay.protocol: in vitro enzyme assay to detect the production of urea directly proportional to the activity of Arginase II; note: in the data most compounds retested in dose-response had high values
# Assay type: functional
# Set-up: scale not given: direction of the effect not stated beside the values
# condition.details: 33.3 µM
Reported Percent Effect values for a set of compounds
The reply should be a number in %, with the unit left off.

Observe how each entry below is paired with its result.
Cc1cccnc1NC(=O)NC(C)Cn1cccn1 (stereo unspecified) :: 1.78
Cc1noc(C2CCC3(CCN(C(=O)c4c(C)noc4C)CC3)O2)n1 (stereo unspecified) :: -6.2

// next item, Percent Effect requested
[in] What value of measured Percent Effect is listed for O=C(CN1CCCCC1Cn1cncn1)NCCC1=CCCCC1 (stereo unspecified) ?
[out] -0.76

---

# target.system: Tyrosyl-tRNA synthetase, putative (Trypanosoma cruzi (strain CL Brener))
# assay.protocol: Trypanosoma cruzi tyrosyl tRNA synthetase (TcYRS) _High Tyrosine SOP; note: in the data most compounds retested in dose-response had high values
# Type: functional
# Parameters: scale not given: direction of the effect not stated beside the values
# condition.details: 30 µM
property: Percent Effect (%)
The reply should be a number in %, with the unit left off.

Observe how each entry below is paired with its result.
CCN(Cc1ccco1)C(=O)NCc1nnc2n1CCC2 :: 6.88
CN(CCNC(=O)NCc1ccncc1)C1CCCC1 :: 1.48
Cc1cnn(CC2CCCN2Cc2nc3ccccc3nc2C)c1 (configuration not stated) :: 0
O=C([C@H]1CCCO1)N1CCCC2(CCN(Cc3ccncc3)C2=O)C1 (some centres not stated) :: 3.17
OC(COCc1cccs1)CN1CCC(c2ccn[nH]2)CC1 (configuration not stated) :: -2.46
Cc1cccc(CN2C(=O)CC[C@@H]3[C@H]2CCN3Cc2ccc(C)s2)n1 :: -1.06

[in] What value of measured Percent Effect is listed for CCOCCCn1c(NC(=O)c2scnc2C)nc2ccccc21 ?
[out] 7.77

[in] What value of measured Percent Effect is listed for CNS(=O)(=O)c1ccc(C(=O)NC2CCOc3ccccc32)o1 (configuration not stated) ?
[out] 2.13

[in] What value of measured Percent Effect is listed for c1cnn(CC2CCCCN2c2ncnc3sccc23)c1 (configuration not stated) ?
[out] -0.546

[in] What value of measured Percent Effect is listed for Cn1ncc2c1CN(Cc1cccnc1)CC2COCC1CC1 (configuration not stated) ?
[out] 4.17

[in] What value of measured Percent Effect is listed for Cc1cnn(C2CN(CC(=O)NCc3ccccn3)C2)c1 ?
[out] 17.2

[in] What value of measured Percent Effect is listed for COc1cccc(COCC(=O)N2CCC(CC(N)=O)CC2)c1 ?
[out] 5.39

---

Reported Percent Effect values for a set of molecules
# target.system: Protein translocase subunit SecA (Escherichia coli (strain K12)) (UniProt P10408)
# Sequence (P10408 whole entry): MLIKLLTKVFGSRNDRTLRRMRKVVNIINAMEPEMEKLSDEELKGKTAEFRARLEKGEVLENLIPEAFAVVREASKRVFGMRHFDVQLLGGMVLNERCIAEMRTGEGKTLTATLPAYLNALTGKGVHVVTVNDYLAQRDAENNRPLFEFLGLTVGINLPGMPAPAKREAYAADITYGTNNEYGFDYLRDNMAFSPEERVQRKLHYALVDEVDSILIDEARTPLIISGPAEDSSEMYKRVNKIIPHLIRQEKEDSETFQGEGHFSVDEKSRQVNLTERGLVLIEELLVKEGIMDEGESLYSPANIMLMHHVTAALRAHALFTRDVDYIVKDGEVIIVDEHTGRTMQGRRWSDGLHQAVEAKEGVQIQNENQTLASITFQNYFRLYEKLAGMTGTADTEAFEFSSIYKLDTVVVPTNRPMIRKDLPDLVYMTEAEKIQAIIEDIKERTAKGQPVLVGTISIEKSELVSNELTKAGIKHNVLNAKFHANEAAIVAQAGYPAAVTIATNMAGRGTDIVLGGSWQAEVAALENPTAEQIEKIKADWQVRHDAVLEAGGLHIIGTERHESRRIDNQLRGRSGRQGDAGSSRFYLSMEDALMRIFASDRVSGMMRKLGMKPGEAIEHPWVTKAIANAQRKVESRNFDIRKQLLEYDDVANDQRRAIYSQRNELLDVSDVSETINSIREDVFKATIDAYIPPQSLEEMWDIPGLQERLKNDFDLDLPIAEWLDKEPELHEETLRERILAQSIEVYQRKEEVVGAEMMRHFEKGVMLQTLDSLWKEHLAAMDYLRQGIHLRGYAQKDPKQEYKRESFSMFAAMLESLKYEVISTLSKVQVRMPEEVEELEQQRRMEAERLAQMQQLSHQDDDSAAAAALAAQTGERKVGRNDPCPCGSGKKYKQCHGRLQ
# assay.protocol: Assay to Identify E. coli SecA ATPase Inhibitors
# Assay type: functional
# Design: scale not given: direction of the effect not stated beside the values
# condition.details: 30 µM
Potency and affinity values are given separately.
In your response, the unit should come after the numeric value.

Observe how each entry below is paired with its result.
CN(CCNC(=O)NCc1ccncc1)C1CCCC1 :: -0.694%
CCc1nc(CN(C)CC(c2cccs2)N2CCOCC2)no1 (stereo not given) :: -2.58%
CC1c2ncc(Cn3cncn3)n2CCN1C1CCOCC1 (stereo not given) :: -4.22%
O=C(NC1(c2cccc(F)c2)CCOCC1)c1cc[nH]n1 :: -4.6%
Cc1ccc(-c2csc(N)c2C#N)cc1 :: -0.493%
CN1CCc2nc(C3CCN(C(=O)CCC4CCCC4)CC3)ncc2C1 :: -2.07%

[in] What value of measured Percent Effect is listed for CCn1c(C)cc(C(=O)N2CCCC(c3nc(C)no3)C2)c1C (stereo not given) ?
[out] -3.15%

[in] What value of measured Percent Effect is listed for O=C(N1CCOCC1)N1CCc2ncnc(NC3CC3)c2CC1 ?
[out] -0.799%

---

Reported Percent Effect values for a set of compounds
# target.system: Proteasome subunit beta (Trypanosoma cruzi) (UniProt O96673)
# assay.protocol: Trypanosoma cruzi proteasome chymotrypsin-like activity (TcProtChymo) assay. Note: in the data most compounds retested in dose-response had high values.
# Type: functional
# Design: scale not given: direction of the effect not stated beside the values
# condition.details: 9.37 µM
The reply should be a number in %, with the unit left off.

[in] What value of measured Percent Effect is listed for CCc1csc(C2CCCN(C(=O)c3ccnc(N(C)C)c3)C2)n1 (stereo not drawn) ?
[out] 7.77

[in] What value of measured Percent Effect is listed for CN(Cc1ccc(F)cc1)CC1(O)CCN(C(=O)c2cccn2C)C1 (stereo not drawn) ?
[out] 0.969

[in] What value of measured Percent Effect is listed for Cc1ccc(CNC(c2ccccc2)c2nccn2C)cc1C (stereo not drawn) ?
[out] 8.08

[in] What value of measured Percent Effect is listed for Cn1cc(CN2CC3(CCN(C(=O)c4cscn4)C3)C2)cn1 ?
[out] 9.85

[in] What value of measured Percent Effect is listed for Cc1cccc(-c2nc(C)nn2CC(=O)NC2CCCC2)c1 ?
[out] 18.6

[in] What value of measured Percent Effect is listed for O=C1NCCN1C1CCCN(Cc2nnc(-c3ccc(F)cc3)o2)C1 (stereo not drawn) ?
[out] 9.7

[in] What value of measured Percent Effect is listed for NS(=O)(=O)c1ccc(NC(=O)CSc2ccc3c(c2)CCC3)cc1 ?
[out] 13.1

[in] What value of measured Percent Effect is listed for CN1CCOC(CNCc2cccc(OCc3ccccn3)c2)C1 (stereo not drawn) ?
[out] -4.18

[in] What value of measured Percent Effect is listed for COCCN1C(=O)C[C@H]2[C@H]1CCN2Cc1cccc(C#N)c1 ?
[out] 5.9

[in] What value of measured Percent Effect is listed for Cc1cc(C)n(C2CCCN(C(=O)C3=NN(C)C(=O)CC3)C2)n1 (stereo not drawn) ?
[out] 11.9

[in] What value of measured Percent Effect is listed for CC1CCN(Cn2nc(-c3ccc(F)cc3)oc2=O)CC1 ?
[out] 6.42

---

# target.system: Tyrosyl-tRNA synthetase, putative (Trypanosoma cruzi (strain CL Brener)) (UniProt Q4DSP6)
# Sequence (Q4DSP6 as listed by the source): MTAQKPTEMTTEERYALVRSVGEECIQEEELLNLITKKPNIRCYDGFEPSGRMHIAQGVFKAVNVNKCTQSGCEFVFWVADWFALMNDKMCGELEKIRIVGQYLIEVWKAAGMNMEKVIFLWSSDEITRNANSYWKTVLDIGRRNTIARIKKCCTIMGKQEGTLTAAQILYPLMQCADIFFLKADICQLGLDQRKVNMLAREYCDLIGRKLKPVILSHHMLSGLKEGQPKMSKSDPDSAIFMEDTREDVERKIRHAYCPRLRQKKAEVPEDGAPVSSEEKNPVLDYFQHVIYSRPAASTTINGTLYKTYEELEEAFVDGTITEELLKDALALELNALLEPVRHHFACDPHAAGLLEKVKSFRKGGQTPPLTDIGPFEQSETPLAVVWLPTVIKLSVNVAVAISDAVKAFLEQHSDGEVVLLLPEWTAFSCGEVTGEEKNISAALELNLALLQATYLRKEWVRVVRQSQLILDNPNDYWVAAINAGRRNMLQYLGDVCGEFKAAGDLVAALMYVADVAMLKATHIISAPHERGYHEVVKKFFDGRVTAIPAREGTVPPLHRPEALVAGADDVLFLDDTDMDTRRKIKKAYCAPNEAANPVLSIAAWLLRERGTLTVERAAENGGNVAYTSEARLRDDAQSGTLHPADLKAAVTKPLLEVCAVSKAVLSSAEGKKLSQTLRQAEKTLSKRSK
# assay.protocol: Trypanosoma cruzi tyrosyl tRNA synthetase (TcYRS) _High Tyrosine SOP; note: in the data most compounds retested in dose-response had high values
# Assay type: functional
# Parameters: scale not given: direction of the effect not stated beside the values
# condition.details: 30 µM
property: Percent Effect (%)
The reply should be a number in %, with the unit left off.

Observe how each entry below is paired with its result.
COCCN1C(=O)C[C@H]2[C@H]1CCN2Cc1cccc(C#N)c1 :: 1.06
O=c1n(CCSCc2ccccc2F)nc2ccccn12 :: 0.952

// next item, Percent Effect requested
[in] What value of measured Percent Effect is listed for Cc1noc(C)c1CN1C(=O)[C@H]2CC[C@@H]1CN(Cc1cccnc1N)C2 ?
[out] 0
